B1: tRNA (parent)
chain: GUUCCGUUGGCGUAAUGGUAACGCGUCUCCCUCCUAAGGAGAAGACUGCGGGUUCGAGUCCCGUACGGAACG

variants of: B1; assay: yeast fitness relative to wild type (ratio to wild type); higher = fitter; tRNA-Arg(CCU), competitive growth, 37 C, YPD
Fewer inactive variants are shown than the library holds.
Measurement Type: yeast fitness

For reference, reported yeast fitness for A15C C34G A37U C46G A69U stands at ≤ 0.5

Quick note, yeast fitness for G12C C34U G44A G52A landed at ≤ 0.5

Form field yeast fitness, entry C24U A45C U47A G63A : ≤ 0.5

Record U19A C31G G44C . Reported yeast fitness: ≤ 0.5

// yeast fitness value for C11U U19G G52A : 0.609

Documented yeast fitness of C27G U54C : ≤ 0.5

Short answer for U16C C29U A36U A40C C46U : yeast fitness was ≤ 0.5

yeast fitness reported for this variant C4G C22G C24U G41A : ≤ 0.5

Lookup result for G12A C30G C46G ; measured yeast fitness: ≤ 0.5

The recorded yeast fitness for entry U26G G48A A57U equals 0.598

// recorded yeast fitness for A15G G17C C33A G56C A65C G68A : ≤ 0.5

yeast fitness in this record for G6A U19C A20U C22U C27G : ≤ 0.5

Query G18C A20C C22U C31U C61U yields yeast fitness of ≤ 0.5

Looking up C4U C30U C34U , I see its yeast fitness listed as ≤ 0.5

yeast fitness recorded for this variant, G12C G18C G67U , is ≤ 0.5

Please fill in: yeast fitness reported for G10C G25C C55A = 0.545

# yeast fitness (variant: G23A C29G U32G C34G A36G C62U ) is ≤ 0.5

Briefly, yeast fitness measured for G6C U32C A36C : ≤ 0.5

Note to self: yeast fitness recorded for C11G A15U C22U A42G was ≤ 0.5

Looking up U8C A21U C30G G58C , I see its yeast fitness listed as ≤ 0.5

Recorded yeast fitness (variant U28C G67U ): 0.914

Reported yeast fitness for C5G A20C A42U G44A C61G was ≤ 0.5

What the record says about C33U U47G C49U : yeast fitness is 0.581

Measured yeast fitness of G17A A37C C55U : 0.56

# yeast fitness (variant: A15G A42C G52C ) is ≤ 0.5

yeast fitness measured on G18C C29U C34U = ≤ 0.5

// yeast fitness lookup, variant = G10A C29G C33U G50A , result: 0.535

Looking up G12A G48C U54C , I see its yeast fitness listed as 0.567

Entry A14U A21G C29G U59A — recorded yeast fitness = ≤ 0.5

variant A20C A42G , yeast fitness observed: 0.842

For record C11U A40G U47G the listed yeast fitness is ≤ 0.5

The value of yeast fitness measured for the variant G44C G48A G58A turned out to be 0.881

Looking up G12A A20U C62U A65G , I see its yeast fitness listed as ≤ 0.5

Note to self: yeast fitness recorded for U8C U26G C30U A40G was ≤ 0.5

// yeast fitness value for U3G G48A U53G : ≤ 0.5

Per the record, U3C U16G C29U C46U G67C A69U has yeast fitness of ≤ 0.5

Memo: C4U A20U C22G , reported yeast fitness: 0.54

Per the record, U59A G63A has yeast fitness of 0.872

For record A20U A37U G41C C46G the listed yeast fitness is ≤ 0.5

So for U8A G18C G48C A65G , the logged yeast fitness turned out to be ≤ 0.5

U26C C29G A43U has a reported yeast fitness of ≤ 0.5

response.value for C11A U53A G67A (field: yeast fitness) = ≤ 0.5

yeast fitness reading for C31A G51C C55G A57U C66U : 0.564

Reported yeast fitness for A45G C55A G58C was 0.537

The measured yeast fitness associated with A20C G41C C66G reads ≤ 0.5

The variant G6C U7G U19A C27G U53A showed yeast fitness equal to 0.612
